For each of the compounds below, state its Emax.
# measured.target: GPR139 (Homo sapiens)
# Sequence (Q6DWJ6 whole entry): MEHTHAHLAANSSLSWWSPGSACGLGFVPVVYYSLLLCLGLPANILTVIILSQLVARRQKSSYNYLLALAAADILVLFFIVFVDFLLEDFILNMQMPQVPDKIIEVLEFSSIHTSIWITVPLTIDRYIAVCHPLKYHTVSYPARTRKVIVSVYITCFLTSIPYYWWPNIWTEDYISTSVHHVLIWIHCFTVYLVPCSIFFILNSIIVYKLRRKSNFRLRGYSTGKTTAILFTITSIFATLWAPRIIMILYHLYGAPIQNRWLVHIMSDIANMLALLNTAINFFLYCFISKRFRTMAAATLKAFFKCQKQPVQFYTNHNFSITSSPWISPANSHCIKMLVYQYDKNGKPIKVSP
# protocol.text: Ca2+ mobilization assay, agonist mode, stable GPR139-CHOk1 cell line
# Type: cell-based
# experimental.setup: Supplementary Table 2; normalized to Lundbeck Cmp 1a; mean ± SEM; read-out: Emax (%) Ca2+
Numbers only, in %.

Past entries and their recorded results:
[[record]]
compound = "CC(NC(=O)Cn1cncc(-c2ccccc2)c1=O)c1ccccc1 (stereo not drawn)"
unit_text = "%"
value_measured = 88

[[record]]
compound = "Cc1ncc(-c2nc(CC(=O)NC(C)c3ccccc3)no2)s1 (stereo not drawn)"
unit_text = "%"
value_measured = 90


Next up:
Data request: Looking for the measured Emax of Cc1cncc(-c2nc(CC(=O)NC(C)c3ccccc3)no2)c1 (stereo not drawn) , can you help?
Data returned: 91
